test system: Malme-3M; assay: NCI tumour cell line growth inhibition, 48 h
Calls of active or inactive are those of the source. Cut-off read from the data, not from the text of the source: active = GI50 up to about 1.1 µM and inactive = higher.
Task for the reader: assign each of the following compounds its reported GI50.

// query Which GI50 value is on record for COCN1C(=O)[C@@H]2C[C@@H](OC/C=C/CBr)CN2C(=O)c2ccccc21 ?
// result 15.6 µM (inactive)

// query Which GI50 value is on record for O=c1ccc2nc3cc(Br)ccc3sc-2c1 ?
// result > 100 µM (inactive)

// query Which GI50 value is on record for O=C(O)Cc1cc(Cl)ccc1O ?
// result > 100 µM (inactive)

// query Which GI50 value is on record for CC1OC(O[C@H]2C3C=CO[C@@H](OC4OC(CO)C(O)C(O)C4O)C3[C@@]3(COC(=O)/C=C/c4ccccc4)O[C@@H]23)C(O)C(O)C1O (some centres not stated) ?
// result > 100 µM (inactive)

// query Which GI50 value is on record for O=C1c2ccccc2-c2[nH]c3cn[nH]c(=O)c3c21 ?
// result > 100 µM (inactive)

// query Which GI50 value is on record for Cc1nn2c(C(=O)N/N=C/c3ccc([N+](=O)[O-])cc3)c(C)nc2s1 ?
// result > 100 µM (inactive)

// query Which GI50 value is on record for CN(C)CCCNC(=O)N/N=C/c1ccccn1 ?
// result > 10 µM (inactive)

// query Which GI50 value is on record for COC(=O)c1c(CC(Cc2ccc3c(c2)CCCC3)C(=O)OC)ccc2c1CCCC2 (configuration not stated) ?
// result 38 µM (inactive)

// query Which GI50 value is on record for O=c1[nH]nc(Cc2ccccc2)n1C1CC1 ?
// result > 100 µM (inactive)

// query Which GI50 value is on record for C=CC1=C(C)c2cc3[nH]c(cc4nc(cc5[nH]c(cc1n2)c(C)c5CCC(=O)N(CC)CC)C(CCC(=O)N(CC)CC)=C4C)c(C)c3C=C ?
// result > 100 µM (inactive)

// query Which GI50 value is on record for CCOC(=O)/C(=C/c1cc(OC)ccc1OC)CC(=O)O ?
// result > 31.6 µM (inactive)

// query Which GI50 value is on record for CNCC(=O)Nc1ccc2c(c1)C(=O)c1ccc(NC(=O)CNC)cc1C2=O ?
// result 3.27 µM (inactive)

// query Which GI50 value is on record for O=C(O)c1cc(-c2ccc3c(O)c(O)ccc3c2)ccc1O ?
// result > 75 µM (inactive)

// query Which GI50 value is on record for O=c1[nH]c(=O)n(C2COC(CO)C2O)cc1F (configuration not stated) ?
// result 9.29 µM (inactive)

// query Which GI50 value is on record for COC(=O)c1c(O)ccc2c1c1c(n2Cc2ccccn2)C(=O)c2ccccc2C1 ?
// result > 100 µM (inactive)

// query Which GI50 value is on record for CSc1nc(Cl)c2c(n1)Sc1ncnn1C2O (configuration not stated) ?
// result 3.18 µM (inactive)

// query Which GI50 value is on record for CC(C)CCNC(=O)c1ccc(CNC(=O)/C=C/c2cccc(Oc3ccccc3)c2)cc1 ?
// result > 100 µM (inactive)

// query Which GI50 value is on record for Nc1ccc(OCCCc2c(-c3ccccc3)[nH]c(N)nc2=O)cc1 ?
// result 26.8 µM (inactive)

// query Which GI50 value is on record for CN[C@@H](C)[C@H](NC)c1ccccc1 ?
// result > 100 µM (inactive)

// query Which GI50 value is on record for C=CC[C@H]1[C@H](O[Si](C)(C)C(C)(C)C)C=CC(=O)[C@@H]1CC(=O)OCC ?
// result 12.7 µM (inactive)

// query Which GI50 value is on record for O=C1NC(=O)C(C(=O)C(=O)Nc2ccc(Cl)cc2Cl)C(=O)N1 ?
// result > 100 µM (inactive)

// query Which GI50 value is on record for CC(C)(C)c1cc(C2COC(=O)COCC(=O)OCCOCCOCCO2)cc(C(C)(C)C)c1O (configuration not stated) ?
// result > 100 µM (inactive)
